Biological target: UniProt:P29350
Sequence (P29350 whole entry): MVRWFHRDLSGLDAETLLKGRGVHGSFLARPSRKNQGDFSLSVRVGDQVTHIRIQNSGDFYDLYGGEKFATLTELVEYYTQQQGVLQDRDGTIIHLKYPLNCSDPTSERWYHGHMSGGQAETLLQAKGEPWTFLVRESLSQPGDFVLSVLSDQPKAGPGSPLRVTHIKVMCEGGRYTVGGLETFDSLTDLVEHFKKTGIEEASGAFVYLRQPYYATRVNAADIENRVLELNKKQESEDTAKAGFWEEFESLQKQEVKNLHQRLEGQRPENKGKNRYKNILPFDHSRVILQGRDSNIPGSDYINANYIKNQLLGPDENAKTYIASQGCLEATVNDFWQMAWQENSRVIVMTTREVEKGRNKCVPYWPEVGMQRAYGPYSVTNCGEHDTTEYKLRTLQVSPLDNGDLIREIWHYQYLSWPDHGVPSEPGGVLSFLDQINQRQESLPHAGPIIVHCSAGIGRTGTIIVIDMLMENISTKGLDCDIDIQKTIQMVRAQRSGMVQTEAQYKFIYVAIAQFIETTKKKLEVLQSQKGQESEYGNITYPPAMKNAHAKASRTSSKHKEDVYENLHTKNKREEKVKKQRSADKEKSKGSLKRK
Assay: Inhibition of recombinant human SHP1 expressed in Escherichia coli using pnitrophenyl phosphate as substrate preincubated for 15 mins followed by substrate addition measured after 60 mins by absorbance based assay
molecules and their reported IC50
The figure you give is taken to be in µM; do not add the unit.

Examples with their reported IC50 follow.
COC(=O)[C@@]12C(=O)[C@](C)(O)C(=O)[C@@H](C(C)=C1C)C1[C@]2(C)C[C@@H]2OC(=O)[C@]13CC[C@H](OC(C)=O)C(C)(C)[C@@H]23 (stereo partly drawn) | 22
COC(=O)[C@]12[C@](C)(C(=O)[C@@]1(C)O)C(C)=C[C@H]1[C@]34CC[C@H](OC(C)=O)C(C)(C)[C@H]3[C@H](C[C@@]12C)OC4=O | 23

Next:
-- ask // fetch IC50 given entry COC(=O)[C@@]12C(=O)[C@@](C)(O)[C@]1(C)C(C)=C[C@H]1[C@]34CC[C@H](OC(C)=O)C(C)(C)[C@H]3[C@H](C[C@@]12C)OC4=O
-- reply 34

----------
Target: M-phase inducer phosphatase 2 (Homo sapiens, UniProt P30305)
Sequence (P30305 whole entry): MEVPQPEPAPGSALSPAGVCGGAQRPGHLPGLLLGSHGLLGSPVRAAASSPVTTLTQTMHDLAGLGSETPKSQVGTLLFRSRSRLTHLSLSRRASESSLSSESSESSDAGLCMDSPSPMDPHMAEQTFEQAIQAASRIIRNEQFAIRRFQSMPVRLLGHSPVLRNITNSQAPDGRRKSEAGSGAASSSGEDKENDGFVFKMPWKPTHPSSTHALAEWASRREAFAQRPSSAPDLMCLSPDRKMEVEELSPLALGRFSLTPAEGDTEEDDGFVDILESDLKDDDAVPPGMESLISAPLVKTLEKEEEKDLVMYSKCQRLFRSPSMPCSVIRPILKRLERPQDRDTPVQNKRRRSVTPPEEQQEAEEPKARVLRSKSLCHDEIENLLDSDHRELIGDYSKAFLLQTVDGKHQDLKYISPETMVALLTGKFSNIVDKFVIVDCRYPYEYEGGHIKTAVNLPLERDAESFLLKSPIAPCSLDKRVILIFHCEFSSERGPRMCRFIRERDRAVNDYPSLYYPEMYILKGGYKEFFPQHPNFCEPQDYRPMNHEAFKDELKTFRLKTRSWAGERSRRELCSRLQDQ
Test: Inhibition of recombinant human CDC25B expressed in Escherichia coli using pnitrophenyl phosphate as substrate preincubated for 15 mins followed by substrate addition measured after 60 mins by absorbance based assay
endpoint_label: IC50 (µM)
Write down the numeric answer in µM and omit the unit.

COC(=O)[C@]12[C@](C)(C(=O)[C@@]1(C)O)C(C)=C[C@H]1[C@]34CC[C@H](OC(C)=O)C(C)(C)[C@H]3[C@H](C[C@@]12C)OC4=O | 18
COC(=O)[C@@]12C(=O)[C@@](C)(O)[C@]1(C)C(C)=C[C@H]1[C@]34CC[C@H](OC(C)=O)C(C)(C)[C@H]3[C@H](C[C@@]12C)OC4=O | 19

In the following, a different compound is considered.
-- ask Quote M-phase inducer phosphatase 2 (Homo sapiens, UniProt P30305) IC50 for entry COC(=O)[C@@]12C(=O)[C@](C)(O)C(=O)[C@@H](C(C)=C1C)C1[C@]2(C)C[C@@H]2OC(=O)[C@]13CC[C@H](OC(C)=O)C(C)(C)[C@@H]23 (stereo partly drawn) .
-- reply 20

----------
Test system: HCT-116
Assay: Cytotoxicity against human HCT-116 cells assessed as cell growth inhibition incubated for 72 hrs by Cell Titer Glo assay
Type: functional, cell-based
Conditions: HCT-116, 72 h
endpoint_label: pIC50
To interpret pIC50, take it as minus log10 of a concentration measured in moles per litre.

-- ask Check the records and state pIC50 for CC1(C)CCC[C@]2(C)[C@H]3Cc4c(c(O)c(O)c5nc(C(=O)O)ccc45)O[C@]3(C)CC[C@@H]12
-- reply 5.00

----------
Target: Phosphotyrosine-protein phosphatase PTPB (Mycobacterium tuberculosis, UniProt P96830)
Sequence (P96830 whole entry): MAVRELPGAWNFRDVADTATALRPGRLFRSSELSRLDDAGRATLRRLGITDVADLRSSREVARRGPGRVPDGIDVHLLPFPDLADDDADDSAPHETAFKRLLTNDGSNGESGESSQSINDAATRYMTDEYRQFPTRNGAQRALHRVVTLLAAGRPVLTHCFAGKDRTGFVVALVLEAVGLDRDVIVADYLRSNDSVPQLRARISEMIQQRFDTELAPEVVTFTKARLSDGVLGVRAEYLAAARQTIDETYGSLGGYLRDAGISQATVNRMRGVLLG
endpoint_label: pIC50
Reminder that pIC50 is minus the log10 of a molar concentration.

-- ask State its pIC50 for this compound: CC(C)[C@H]1CC[C@@]2(C)CC[C@]3(CO)CC4=C(C(=O)O)CC[C@H]4[C@]4(C)C[C@@H]4[C@H]3[C@H]12
-- reply 4.74

----------
Biological target: Tyrosine-protein phosphatase non-receptor type 2 (Homo sapiens)
Sequence (P17706 whole entry): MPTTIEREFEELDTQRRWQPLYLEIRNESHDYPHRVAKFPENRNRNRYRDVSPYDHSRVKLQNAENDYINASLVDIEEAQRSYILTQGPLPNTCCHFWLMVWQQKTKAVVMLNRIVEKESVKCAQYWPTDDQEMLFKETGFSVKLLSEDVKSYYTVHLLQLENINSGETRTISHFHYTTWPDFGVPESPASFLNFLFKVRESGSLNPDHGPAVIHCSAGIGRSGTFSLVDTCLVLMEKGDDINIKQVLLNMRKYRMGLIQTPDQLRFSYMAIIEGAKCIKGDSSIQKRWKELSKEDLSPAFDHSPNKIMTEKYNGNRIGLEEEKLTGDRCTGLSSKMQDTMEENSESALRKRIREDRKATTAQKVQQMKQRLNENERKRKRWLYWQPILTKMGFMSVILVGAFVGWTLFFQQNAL
Assay: Inhibition of recombinant human TCPTP expressed in Escherichia coli using p-nitrophenyl phosphate as substrate preincubated for 15 mins followed by substrate addition measured after 60 mins by absorbance based assay
endpoint_label: pIC50
Give only the number. pIC50 is defined as minus log10 of concentration in molar units.

CC(C)(O)[C@H]1OC2CC[C@@]3(C)[C@@](O)(CC[C@H]4C[C@]5(OCNc6ccccc65)C(=O)[C@@]43C)C2=CC1=O (some centres not stated) | 5.77

Consider the additional compound presented here.
-- ask Could you please provide reported pIC50 for CC1(C)Oc2c(nc3c4c2C(=O)CC[C@]4(C)[C@@]2(C)c4[nH]c5ccccc5c4C[C@@H]2C3)[C@H]1O ? Thanks!
-- reply 5.77

Ref: ChEMBL document CHEMBL5104094
